Biological target: ScCyk3
Assay: SPOT peptide array binding signal intensity (averaged, normalized) (arbitrary units (background-subtracted, floor 0; scale differs between SH3 domains)); higher = stronger binding of the SH3 domain to the peptide
Quantity Name: SPOT peptide array binding signal intensity
Give only the figure.

# Binder, Val
measured = [
    ("LKRITSPPLPPRADS", 2),
]

Input line: Give a short answer stating reported SPOT peptide array binding signal intensity for `RPVPRRPSQPLNTLS` .
Output line: 22

Input line: Hello, please tell me recorded SPOT peptide array binding signal intensity for this one: `PLQSKIPMLPSRRTM`
Output line: 9

Input line: Identify measured SPOT peptide array binding signal intensity associated with `PSRRDSLSIPRAVDA`
Output line: 2

Input line: Quickly give me recorded SPOT peptide array binding signal intensity for `RPVPPPPPMRTTTEG`
Output line: 8.5

Input line: Report SPOT peptide array binding signal intensity, nothing else, for this binder: `LKQRFFLMFPKSIIW`
Output line: 124
